Target or test system: T1, recombinant human IL6 (human, UniProt P05231 30-212)
T1 construct: Amine-coupled to a CM5 chip in the Biacore assay; used biotinylated in the Alphascreen assays; also called interleukin-6; biotinylated human IL6
Test summary: Alphascreen competition: Nanobody titrated against 3 nM biotinylated human IL6; blocked partner IL6R (1 nM) captured on acceptor beads coated with anti-IL6R MAb BN-12; streptavidin donor beads; readout cps
Each record here notes measured IC50.
Give just the numeric value; nM need not be written.

Completed entries (count: 2):
[[record]]
binder = "PMP6B6 (VHH, Monovalent Nanobody) VHH: QVQLVESAGGLVQPGGSLRLSCAASGIIFSINAMGWYRQAPGKRRELVADIMPYGSTEYADSVKGRFTISRDNAKNTVYLQMNSLKPEDTAVYYCHSYDPRGDDYWGQGTQVTVSS"
experimental_result = 2

[[record]]
binder = "PMP7G5 (VHH, Monovalent Nanobody) VHH: QVKLEESGGGLVQPGGSLRLSCAASGSISRFNIMGWYRQAPGKQRELVADITNGGTTMYADSVKGRFTISRDNTKNTVYLQMNSLKPEDTAVYYCHTYYPTTGFDDWGQGAQVTVSS"
experimental_result = 6.1


Task item: Quick one: IC50 of PMP7G4 (VHH, Monovalent Nanobody) VHH: AVQLVESGGGLVQPGGSLRLSCAASGSIFSRLAMDWYRQAPGKQRELVASISRSGTTMAADSVKGRFTISRDNAENMVYLQMNSLKPEDTAVYVCMAFDGYSGSDYWGRGTQVTVSS ?
Reply: 2.5

Task item: // repeat for PMP7G9 (VHH, Monovalent Nanobody) VHH: QVQLVESGGGLVQPGGSLRLSCAASGFSLDYYGVGWFRQAPGKEREGVSCISSSDGDTYYADSVKGRFTISRDNAKNTVYLQMNSLKPEDTAVYYCATDLSDYGVCSRWPSPYDYWGQGTQVTVSS and report
Reply: 3.4
